# measurement target: specific GHB sites (high-affinity GHB binding site) (Rattus norvegicus, UniProt P11275)
# Construct: using crude synaptic membranes prepared from rat cortex; from tissue; host or cells: rat cortex, crude synaptic membranes
# protocol summary: biochemical
# measurement context: pH 7.4; read-out: Ki, 3H-A binding assay
pKi: −log10 of the molar value.

| molecule | pKi |
| --- | --- |
| O=C(O)/C=C1\CCCc2cc(/C=C/c3ccccc3)ccc2C1O (stereo not shown) | 7.06 |

----------
Below is a list of entries, each paired with its recorded Ki value.
# measurement target: specific GHB sites (high-affinity GHB binding site) (Rattus norvegicus, UniProt P11275)
# Construct: using crude synaptic membranes prepared from rat cortex; from tissue; host or cells: rat cortex, crude synaptic membranes
# protocol summary: biochemical
# measurement context: read-out: Ki, inhibition of 3H-B binding; pH 6
measured attribute: Ki

| compound | result |
| --- | --- |
| O=C(O)/C=C1\CCCc2cc(Cl)ccc2C1O (stereo not shown) | 52 nM |
| O=C(O)/C=C1\CCCc2c(-c3ccccc3)cccc2C1O (stereo not shown) | 382 nM |
| O=C(O)/C=C1\CCCc2cc(I)ccc2C1O (stereo not shown) | 53 nM |
| O=C(O)/C=C1\CCCc2ccc(Br)cc2C1O (stereo not shown) | 9690 nM |

----------
# measurement target: CAMK2A (Rattus norvegicus, UniProt P11275)
# Sequence (P11275 whole entry): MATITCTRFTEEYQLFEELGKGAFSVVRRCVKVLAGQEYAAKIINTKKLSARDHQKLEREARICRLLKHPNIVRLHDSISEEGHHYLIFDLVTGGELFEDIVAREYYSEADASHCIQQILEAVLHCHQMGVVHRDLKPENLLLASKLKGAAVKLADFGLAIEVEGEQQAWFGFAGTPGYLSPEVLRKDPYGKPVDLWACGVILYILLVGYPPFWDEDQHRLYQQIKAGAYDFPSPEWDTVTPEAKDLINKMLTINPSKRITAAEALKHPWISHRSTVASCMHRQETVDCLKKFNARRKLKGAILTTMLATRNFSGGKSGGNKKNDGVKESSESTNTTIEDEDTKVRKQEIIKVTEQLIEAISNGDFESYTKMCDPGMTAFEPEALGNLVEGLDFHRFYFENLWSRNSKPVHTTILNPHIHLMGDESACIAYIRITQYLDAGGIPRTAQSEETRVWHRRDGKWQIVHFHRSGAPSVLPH
# protocol summary: biochemical
# measurement context: whole cell lysates of CAMK2A-transfected HEK293T cells
pKi: −log10 of the molar value.

| compound | pKi |
| --- | --- |
| O=C(O)C1=CC(O)CC1 (centres unmarked) [Compound A, 3-hydroxycyclopent-1-enecarboxylic acid] | 5.71 |
| O=C(O)/C=C1\CCCc2ccccc2C1O (centres unmarked) [B, reference compound] | 5.43 |

----------
# measurement target: specific GHB sites (high-affinity GHB binding site) (Rattus norvegicus, UniProt P11275)
# Construct: using crude synaptic membranes prepared from rat cortex; from tissue; host or cells: rat cortex, crude synaptic membranes
# protocol summary: biochemical
# measurement context: FIG. 1D; read-out: Ki, competition in the 3H-A binding assay

| molecule | measurement target | unit abbrev | Ki |
| --- | --- | --- | --- |
| O=C(O)Cc1ccccc1Nc1c(Cl)cccc1Cl [diclofenac, reference compound] | specific GHB sites (high-affinity GHB binding site) (Rattus norvegicus, UniProt P11275) | µM | 4.7 |
| O=C(O)Cc1ccccc1Nc1c(Cl)cc(O)cc1Cl [4′-hydroxydiclofenac, reference compound] | specific GHB sites (high-affinity GHB binding site) (Rattus norvegicus, UniProt P11275) | µM | 16 |

----------
Below is a list of entries, each paired with its recorded Ki value.
# measurement target: specific GHB sites (high-affinity GHB binding site) (Rattus norvegicus)
# Construct: using crude synaptic membranes prepared from rat cortex; from tissue; host or cells: rat cortex, crude synaptic membranes
# protocol summary: biochemical
# measurement context: pH 6

| molecule | unit abbrev | Ki |
| --- | --- | --- |
| O=C(O)/C=C1\CCCc2cc(/C=C/c3ccccc3)ccc2C1O (centres unmarked) | µM | 0.03 |
| O=C(O)/C=C1\CCCc2c(Br)cccc2C1O (centres unmarked) | µM | 0.225 |
| O=C(O)/C=C1\CCCc2cc(F)ccc2C1O (centres unmarked) | µM | 0.108 |
| Cc1ccc2c(c1)CCC/C(=C\C(=O)O)C2O (centres unmarked) | µM | 0.325 |
| O=C(O)/C=C1\CCCc2ccccc2C1O (centres unmarked) [B, reference compound] | µM | 0.44 |

Attribution: patent US12077495B2
